Where do the numbers come from? From ChEMBL document CHEMBL1275280.

test: Inhibition of DNA-dependent protein kinase at 4 uM
The source made the active and inactive calls. No cut-off for these calls is given here.
Give your call using only these classes: TRUE (active), FALSE (inactive)

Answered examples (5):
structureString: Cc1c(OCc2cccnc2)ccc2c(=O)nc(N3CCOCC3)oc12
groupLabel: TRUE

structureString: Cc1c(OCCN2CCN(C)CC2)ccc2c(=O)nc(N3CCOCC3)oc12
groupLabel: TRUE

structureString: CN1CCN(CCOc2ccc3oc(N4CCOCC4)nc(=O)c3c2)CC1
groupLabel: FALSE

structureString: CN1CCN(CCOc2cccc3oc(N4CCOCC4)nc(=O)c23)CC1
groupLabel: FALSE

structureString: CN1CCN(CCOc2ccc3c(=O)nc(N4CCOCC4)oc3c2)CC1
groupLabel: TRUE

Then there is this molecule:
Qu. Query: recorded result category for "CN1CCN(CCOc2cccc3c(=O)nc(N4CCOCC4)oc23)CC1" in this test
Ans. TRUE
